Conditions: buffer; pH 7.4; 200.0 µM
property.label: solubility kinetic

The compound CCC(Oc1ccccc1)C(=O)NC1CCSC1=O (centres undefined) showed solubility kinetic equal to > 41.9 µg/mL

The compound COc1ccc(/C=C2/C(=O)ON=C2C)cc1Cl showed solubility kinetic equal to 23.6 µg/mL

The compound COc1ccc(CCNC(=O)COC(=O)c2cnc(Cl)c(Cl)c2)cc1 showed solubility kinetic equal to 5.4 µg/mL

The compound O=C(Nc1nccs1)c1ccc(N2C(=O)[C@@H]3[C@H](C2=O)[C@H]2C=C[C@@H]3C2)cc1 showed solubility kinetic equal to 6.1 µg/mL

The compound C/C(=C\c1ccccc1)CN1CCN(C)CC1 showed solubility kinetic equal to 18.1 µg/mL

The compound COc1ccc(CC(=O)Nc2ccc3nc(SC)sc3c2)cc1OC showed solubility kinetic equal to 34.3 µg/mL

The compound N#Cc1c(NC(=O)c2ccco2)sc2c1CCC2 showed solubility kinetic equal to 9.4 µg/mL

The compound CCOC(=O)[C@H](CCc1ccccc1)N[C@@H](C)C(=O)N1Cc2ccccc2C[C@H]1C(=O)O.Cl showed solubility kinetic equal to > 71.2 µg/mL

The compound CC1Cc2ccccc2N1C(=O)C1CC(=O)N(c2ccccc2)C1 (centres undefined) showed solubility kinetic equal to 44.9 µg/mL

The compound O=C(O)C1CCN(C(=O)c2ccc3c(c2)OCO3)CC1 showed solubility kinetic equal to 36.2 µg/mL

The compound CC1CCN(C(=O)COC(=O)c2ccccc2C(=O)c2ccccc2)CC1 showed solubility kinetic equal to > 54.8 µg/mL

The compound COc1ccc(C)cc1NC(=O)C1CCN(C(=O)c2ccco2)CC1 showed solubility kinetic equal to > 51.4 µg/mL

The compound CC(C(=O)Nc1cccc([N+](=O)[O-])c1)N1C(=O)NC2(CCCC2)C1=O (centres undefined) showed solubility kinetic equal to > 52 µg/mL

The compound N#Cc1cccc(NC(=O)CSc2n[nH]c(=O)[nH]c2=O)c1 showed solubility kinetic equal to > 45.5 µg/mL

The compound CC(C)(CCC(=S)N1CCOCC1)C1CCCCC1 showed solubility kinetic equal to 4.1 µg/mL

The compound O=C1Nc2ccc(S(=O)(=O)N(CCO)CCO)c3cccc1c23 showed solubility kinetic equal to > 50.5 µg/mL

The compound Cl.NC(=NCCc1ccccc1)NC(=O)c1cc(Cl)ccc1O showed solubility kinetic equal to 10.6 µg/mL

The compound N#Cc1ccc(C(=O)OCC(=O)NC2CCCC2)cc1 showed solubility kinetic equal to 39 µg/mL

The compound Cc1c2n(c3ccccc13)CCC2=O showed solubility kinetic equal to 14.1 µg/mL

The compound CCOC(=O)N1CCN(c2nc(-c3ccccc3)c3ccccc3n2)CC1 showed solubility kinetic equal to < 0.2 µg/mL

The compound O=CN1Cc2ccccc2-c2ccccc2C1 showed solubility kinetic equal to > 33.5 µg/mL

The compound CNC(=S)NC1(C)CCS(=O)(=O)C1 (centres undefined) showed solubility kinetic equal to > 33.3 µg/mL

The compound COc1ccc(CCNC(=O)c2csc3c2CCCC3)cc1OC showed solubility kinetic equal to > 51.8 µg/mL

The compound O=C(NN1C(=O)C2C3C=CC(C3)C2C1=O)C(O)c1ccccc1 (centres undefined) showed solubility kinetic equal to > 46.8 µg/mL
